Molecular target: CD22 (Homo sapiens, UniProt P20273)
Construct: The soluble CD22 protein was expressed in the CHO-Lec1 cell line; made in house; host or cells: CHO-Lec1
Sequence (P20273 20-687 limits assumed): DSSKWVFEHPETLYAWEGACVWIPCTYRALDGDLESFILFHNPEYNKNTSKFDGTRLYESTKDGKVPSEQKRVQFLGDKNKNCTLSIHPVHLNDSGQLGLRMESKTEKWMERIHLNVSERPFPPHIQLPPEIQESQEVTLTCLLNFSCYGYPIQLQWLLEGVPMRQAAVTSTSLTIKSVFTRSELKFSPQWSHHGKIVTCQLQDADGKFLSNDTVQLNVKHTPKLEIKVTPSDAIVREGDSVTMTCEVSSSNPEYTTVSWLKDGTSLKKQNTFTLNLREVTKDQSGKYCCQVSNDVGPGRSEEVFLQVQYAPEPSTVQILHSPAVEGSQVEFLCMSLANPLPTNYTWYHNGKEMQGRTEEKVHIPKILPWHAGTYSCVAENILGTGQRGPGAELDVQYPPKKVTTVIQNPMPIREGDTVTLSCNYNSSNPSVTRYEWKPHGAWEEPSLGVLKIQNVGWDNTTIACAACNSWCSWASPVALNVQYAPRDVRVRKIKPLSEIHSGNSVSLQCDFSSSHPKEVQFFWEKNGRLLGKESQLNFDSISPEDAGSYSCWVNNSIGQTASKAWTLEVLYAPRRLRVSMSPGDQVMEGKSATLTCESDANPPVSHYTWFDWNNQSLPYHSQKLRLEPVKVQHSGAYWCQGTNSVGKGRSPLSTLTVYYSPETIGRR
Assay: ELISA-based inhibition assay: inhibition of binding of soluble CD22 to immobilized IgM
Details: Table IV; relative to reference compound 66 co-tested in the same assay (rIP = 1)
rIP vs 0.3: at or above is y, below is n.

Form field: rIP at least 0.3? Entry: CC(=O)N[C@H]1[C@H]([C@H](O)[C@H](O)CNC(=O)c2ccc(-c3cccs3)s2)O[C@@](OCCCCCC(=O)[O-])(C(=O)[O-])C[C@@H]1NC(=O)OCc1ccccc1.[Na+].[Na+] n

Form field: rIP at least 0.3? Entry: CC(=O)N[C@H]1[C@H]([C@H](O)[C@H](O)CNC(=O)c2ccc(-c3cccs3)cc2)O[C@@](OCCCCCC(=O)[O-])(C(=O)[O-])C[C@@H]1NC(=O)OCc1ccccc1.[Na+].[Na+] y

Form field: rIP at least 0.3? Entry: CC(=O)N[C@H]1[C@H]([C@H](O)[C@H](O)CNC(=O)Cc2ccc3ccccc3c2)O[C@@](OCCCCCC(=O)[O-])(C(=O)[O-])C[C@@H]1NC(=O)OCc1ccccc1.[Na+].[Na+] y

Form field: rIP at least 0.3? Entry: CC(=O)N[C@H]1[C@H]([C@H](O)[C@H](O)CNC(=O)c2ccc(-c3ccccc3)nc2)O[C@@](OCCCCCC(=O)[O-])(C(=O)[O-])C[C@@H]1NC(=O)OCc1ccccc1.[Na+].[Na+] n

Form field: rIP at least 0.3? Entry: CC(=O)N[C@H]1[C@H]([C@H](O)[C@H](O)CNC(=O)c2ccc(-c3ccccc3F)cc2)O[C@@](OCCCCCC(=O)[O-])(C(=O)[O-])C[C@@H]1NC(=O)OCc1ccccc1.[Na+].[Na+] y

Form field: rIP at least 0.3? Entry: CC(=O)N[C@H]1[C@H]([C@H](O)[C@H](O)CNC(=O)c2cnc(-c3ccccc3)nc2)O[C@@](OCCCCCC(=O)[O-])(C(=O)[O-])C[C@@H]1NC(=O)OCc1ccccc1.[Na+].[Na+] n
